Haemophilus influenzae 632A data, read-out MIC
Provide only the numeric value, understood in mg/L.

Request: Record request: MIC value, item CC[C@H]1OC(=O)[C@H](C)[C@@H](O[C@H]2C[C@@](C)(OC)[C@@H](O)[C@H](C)O2)[C@H](C)[C@@H](O[C@@H]2O[C@H](C)C[C@H](N(C)C)[C@H]2O)[C@](C)(O)C[C@@H](C)[C@@H](N2CCOCC2)[C@H](C)[C@@H](O)[C@]1(C)O
Result: 4

Request: Record request: MIC value, item CC[C@H]1OC(=O)[C@H](C)[C@@H](O[C@H]2C[C@@](C)(OC)[C@@H](O)[C@H](C)O2)[C@H](C)[C@@H](O[C@@H]2O[C@H](C)C[C@H](N(C)C)[C@H]2O)[C@](C)(O)C[C@@H](C)[C@@H](N2CCC(C)(C)CC2)[C@H](C)[C@@H](O)[C@]1(C)O
Result: 1

Request: Record request: MIC value, item CC[C@H]1OC(=O)[C@H](C)[C@@H](O[C@H]2C[C@@](C)(OC)[C@@H](O)[C@H](C)O2)[C@H](C)[C@@H](O[C@@H]2O[C@H](C)C[C@H](N(C)C)[C@H]2O)[C@](C)(O)C[C@@H](C)[C@@H](N2CCC(=O)CC2)[C@H](C)[C@@H](O)[C@]1(C)O
Result: 2

Request: Record request: MIC value, item CC[C@H]1OC(=O)[C@H](C)[C@@H](O[C@H]2C[C@@](C)(OC)[C@@H](O)[C@H](C)O2)[C@H](C)[C@@H](O[C@@H]2O[C@H](C)C[C@H](N(C)C)[C@H]2O)[C@](C)(O)C[C@@H](C)[C@@H](N2CCCCC2)[C@H](C)[C@@H](O)[C@]1(C)O
Result: 1

Request: Record request: MIC value, item CC[C@H]1OC(=O)[C@H](C)[C@@H](O[C@H]2C[C@@](C)(OC)[C@@H](O)[C@H](C)O2)[C@H](C)[C@@H](O[C@@H]2O[C@H](C)C[C@H](N(C)C)[C@H]2O)[C@](C)(O)C[C@@H](C)[C@@H](N2CCC(OC)(OC)CC2)[C@H](C)[C@@H](O)[C@]1(C)O
Result: 1

Request: Record request: MIC value, item CC[C@H]1OC(=O)[C@H](C)[C@@H](O[C@H]2C[C@@](C)(OC)[C@@H](O)[C@H](C)O2)[C@H](C)[C@@H](O[C@@H]2O[C@H](C)C[C@H](N(C)C)[C@H]2O)[C@](C)(O)C[C@@H](C)[C@@H](N2CCC(C)CC2)[C@H](C)[C@@H](O)[C@]1(C)O
Result: 1
